TEST DETAILS: Cytotoxicity assay (resazurin)
Assay type: cell-based
PARTICULARS: human, IMR-90 normal lung fibroblast cells, read-out: Cytotoxicity IC50 (µM) IMR90
Square brackets hold non-standard residues; d marks the D form. Peptide text beside a SMILES is read from it.
MEASUREMENT TYPE: CC50 at 48 h (µM)
The reply should be a number in µM, with the unit left off.

Exercise: Need CC50 at 48 h, item CC[C@@H](C)[C@@H](N)C(=O)N[C@@H](CC(C)C)C(=O)N[C@@H](CCCCN)C(=O)N[C@@H](C)C(=O)N[C@H](C(=O)N[C@@H](CCCCN)C(=O)N[C@@H](CCCCN)C(=O)N[C@@H](CC(C)C)C(=O)N[C@@H](CC(C)C)C(=O)N[C@H](CCCCN)C(N)=O)[C@@H](C)CC [i1k10*] (H-[dI]LKAIKKLL[dK]-NH2)
Key: 783

Exercise: // repeat for CC[C@@H](C)[C@@H](N)C(=O)N[C@H](CC(C)C)C(=O)N[C@H](CCCCN)C(=O)N[C@H](C)C(=O)N[C@@H](C(=O)N[C@H](CCCCN)C(=O)N[C@H](CCCCN)C(=O)N[C@H](CC(C)C)C(=O)N[C@H](CC(C)C)C(=O)N[C@H](CCCCN)C(=O)N[C@H](CC(N)=O)C(N)=O)[C@H](C)CC [LTX-D (gallicune-1), ilkaikkllkn] (H-[dI][dL][dK][dA][dI][dK][dK][dL][dL][dK][dN]-NH2) and report
Key: 653

Exercise: // repeat for CC[C@@H](C)[C@@H](N)C(=O)N[C@H](CC(C)C)C(=O)N[C@H](CCCCN)C(=O)N[C@H](C)C(=O)N[C@@H](C(=O)N[C@H](CCCCN)C(=O)N[C@H](CCCCN)C(=O)N[C@H](CC(C)C)C(=O)N[C@H](CC(C)C)C(=O)N[C@H](CCCCN)C(N)=O)[C@H](C)CC [(i1k10*) enantio, ilkaikkllk] (H-[dI][dL][dK][dA][dI][dK][dK][dL][dL][dK]-NH2) and report
Key: 365

Exercise: // repeat for CC[C@@H](C)[C@@H](N)C(=O)N[C@@H](CC(C)C)C(=O)N[C@@H](CCCCN)C(=O)N[C@@H](C)C(=O)N[C@H](C(=O)N[C@@H](CCCCN)C(=O)N[C@@H](CCCCN)C(=O)N[C@@H](CC(C)C)C(=O)N[C@@H](CC(C)C)C(=O)N[C@@H](CCCCN)C(=O)N[C@H](CC(N)=O)C(N)=O)[C@@H](C)CC [LTX-gallicune-1(i1D-n11D)] (H-[dI]LKAIKKLLK[dN]-NH2) and report
Key: 362

---

Square brackets hold non-standard residues; d marks the D form. Peptide text beside a SMILES is read from it.
Below are MBC (µM) S. flexneri values recorded for S. flexneri.
The reply should be a number in µM, with the unit left off.

Exercise: Need MBC (µM) S. flexneri, item CC[C@@H](C)[C@@H](N)C(=O)N[C@H](CC(C)C)C(=O)N[C@H](CCCCN)C(=O)N[C@H](C)C(=O)N[C@@H](C(=O)N[C@H](CCCCN)C(=O)N[C@H](CCCCN)C(=O)N[C@H](CC(C)C)C(=O)N[C@H](CC(C)C)C(=O)N[C@H](CCCCN)C(N)=O)[C@H](C)CC [(i1k10*) enantio, ilkaikkllk] (H-[dI][dL][dK][dA][dI][dK][dK][dL][dL][dK]-NH2)
Key: 12.5

Exercise: // repeat for CC[C@@H](C)[C@@H](N)C(=O)N[C@H](CC(C)C)C(=O)N[C@H](CCCCN)C(=O)N[C@H](C)C(=O)N[C@@H](C(=O)N[C@H](CCCCN)C(=O)N[C@H](CCCCN)C(=O)N[C@H](CC(C)C)C(=O)N[C@H](CC(C)C)C(=O)N[C@H](CCCCN)C(=O)N[C@H](CC(N)=O)C(N)=O)[C@H](C)CC [LTX-D (gallicune-1), ilkaikkllkn] (H-[dI][dL][dK][dA][dI][dK][dK][dL][dL][dK][dN]-NH2) and report
Key: 12.5

Exercise: // repeat for CC[C@@H](C)[C@@H](N)C(=O)N[C@@H](CC(C)C)C(=O)N[C@@H](CCCCN)C(=O)N[C@@H](C)C(=O)N[C@H](C(=O)N[C@@H](CCCCN)C(=O)N[C@@H](CCCCN)C(=O)N[C@@H](CC(C)C)C(=O)N[C@@H](CC(C)C)C(=O)N[C@@H](CCCCN)C(=O)N[C@H](CC(N)=O)C(N)=O)[C@@H](C)CC [LTX-gallicune-1(i1D-n11D)] (H-[dI]LKAIKKLLK[dN]-NH2) and report
Key: 12.5

Exercise: // repeat for CC[C@@H](C)[C@@H](N)C(=O)N[C@@H](CC(C)C)C(=O)N[C@@H](CCCCN)C(=O)N[C@@H](C)C(=O)N[C@H](C(=O)N[C@@H](CCCCN)C(=O)N[C@@H](CCCCN)C(=O)N[C@@H](CC(C)C)C(=O)N[C@@H](CC(C)C)C(=O)N[C@H](CCCCN)C(N)=O)[C@@H](C)CC [i1k10*] (H-[dI]LKAIKKLL[dK]-NH2) and report
Key: 6.25
